I'd appreciate it if you could supply solubility (solute concentration completely dissolved) values for the items below.
test: Evaluation of solubility in organic solvents (visual observation of complete dissolution); assay type: physicochemical; details: ortho-dichlorobenzene, 80° C.

Items follow; give solubility (solute concentration completely dissolved) for each.
1. CCCCCCc1ccc(-c2ccc(-c3c4c(c(-c5ccc(-c6ccc(CCCCCC)c(OC(F)(F)F)c6)s5)c5nsnc35)N=S=N4)s2)cc1OC(F)(F)F
2. CCCCCCCc1cc(-c2ccc(-c3c4c(c(-c5ccc(-c6ccc(C#N)c(CCCCCCC)c6)s5)c5nsnc35)N=S=N4)s2)ccc1C#N
3. CCCCCCCCCCCCCCCCc1cc(-c2ccc(-c3c4c(c(-c5ccc(-c6ccc(C#N)c(CCCCCCCCCCCCCCCC)c6)s5)c5nsnc35)N=S=N4)s2)ccc1C#N
4. CCCCCCc1cc(-c2ccc(-c3c4c(c(-c5ccc(-c6ccc(OC(F)(F)F)c(CCCCCC)c6)s5)c5nsnc35)N=S=N4)s2)ccc1OC(F)(F)F
5. CCCCCCCCCCCCCCCCCCc1cc(-c2ccc(-c3c4c(c(-c5ccc(-c6ccc(C#N)c(CCCCCCCCCCCCCCCCCC)c6)s5)c5nsnc35)N=S=N4)s2)ccc1C#N
6. CCCC(C)CCc1cc(-c2ccc(-c3c4c(c(-c5ccc(-c6ccc(C#N)c(CCC(C)CCC)c6)s5)c5nsnc35)N=S=N4)s2)ccc1C#N (stereo not drawn)

Resp:
1. ≥ 0.5 wt %
2. ≥ 0.3 wt %
3. ≥ 0.3 wt %
4. ≥ 0.5 wt %
5. ≥ 0.3 wt %
6. ≥ 0.3 wt %

====

assay: Evaluation of solubility in organic solvents (visual observation of complete dissolution); assay type: physicochemical; settings: ortho-dichlorobenzene, 60° C.
observed-property: solubility (solute concentration completely dissolved)

These solved cases illustrate the format of a correct answer.
> print(dat)
                               smiles.entry  observed.measurement
1  CCCCCCCCCCCCc1cc(-c2ccc(-c3c4c(c(-c5ccc(-c6ccc(C(F)(F)F)c(CCCCCCCCCCCC)c6)s5)c5nsnc35)N=S=N4)s2)ccc1C(F)(F)F            ≥ 0.3 wt %
2  CCCCCCCCc1ccc(-c2ccc(-c3c4c(c(-c5ccc(-c6ccc(CCCCCCCC)c(C#N)c6)s5)c5nsnc35)N=S=N4)s2)cc1C#N            ≥ 0.3 wt %

Items follow; give solubility (solute concentration completely dissolved) for each.
1. CCCCCCCCc1ccc(-c2ccc(-c3c4c(c(-c5ccc(-c6ccc(CCCCCCCC)c(C(F)(F)F)c6)s5)c5nsnc35)N=S=N4)s2)cc1C(F)(F)F
2. CCCCCCc1cc(-c2ccc(-c3c4c(c(-c5ccc(-c6ccc(OC(F)(F)F)c(CCCCCC)c6)s5)c5nsnc35)N=S=N4)s2)ccc1OC(F)(F)F
3. CCCCCCc1ccc(-c2ccc(-c3c4c(c(-c5ccc(-c6ccc(CCCCCC)c(OC(F)(F)F)c6)s5)c5nsnc35)N=S=N4)s2)cc1OC(F)(F)F
4. CCCCCCCCCc1cc(-c2ccc(-c3c4c(c(-c5ccc(-c6ccc(C#N)c(CCCCCCCCC)c6)s5)c5nsnc35)N=S=N4)s2)ccc1C#N
5. CCCCCCCCc1cc(-c2ccc(-c3c4c(c(-c5ccc(-c6ccc(C#N)c(CCCCCCCC)c6)s5)c5nsnc35)N=S=N4)s2)ccc1C#N
6. CCCCCCCCc1cc(-c2ccc(-c3c4c(c(-c5ccc(-c6ccc(C(F)(F)F)c(CCCCCCCC)c6)s5)c5nsnc35)N=S=N4)s2)ccc1C(F)(F)F
7. CCCCCCCCCCCCc1cc(-c2ccc(-c3c4c(c(-c5ccc(-c6ccc(C#N)c(CCCCCCCCCCCC)c6)s5)c5nsnc35)N=S=N4)s2)ccc1C#N
8. CCCCCCc1cc(-c2ccc(-c3c4c(c(-c5ccc(-c6ccc(C(F)(F)F)c(CCCCCC)c6)s5)c5nsnc35)N=S=N4)s2)ccc1C(F)(F)F

Resp:
≥ 0.3 wt %
≥ 0.1 wt %
≥ 0.1 wt %
≥ 0.3 wt %
≥ 0.3 wt %
≥ 0.3 wt %
≥ 0.3 wt %
≥ 0.1 wt %

All figures here come from patent US9978954B2.
